- target-desc: KIAA1967 DBIRD complex subunit KIAA1967 (Homo sapiens)
- Construct: isoTOP-ABPP experiments performed in cell lysates (in vitro); endogenous in cells; host or cells: soluble proteome of human cancer cell lines (MDA-MB-231; Ramos and Jurkat also prepared)
- Sequence (Q8N163 whole entry, one chain of several): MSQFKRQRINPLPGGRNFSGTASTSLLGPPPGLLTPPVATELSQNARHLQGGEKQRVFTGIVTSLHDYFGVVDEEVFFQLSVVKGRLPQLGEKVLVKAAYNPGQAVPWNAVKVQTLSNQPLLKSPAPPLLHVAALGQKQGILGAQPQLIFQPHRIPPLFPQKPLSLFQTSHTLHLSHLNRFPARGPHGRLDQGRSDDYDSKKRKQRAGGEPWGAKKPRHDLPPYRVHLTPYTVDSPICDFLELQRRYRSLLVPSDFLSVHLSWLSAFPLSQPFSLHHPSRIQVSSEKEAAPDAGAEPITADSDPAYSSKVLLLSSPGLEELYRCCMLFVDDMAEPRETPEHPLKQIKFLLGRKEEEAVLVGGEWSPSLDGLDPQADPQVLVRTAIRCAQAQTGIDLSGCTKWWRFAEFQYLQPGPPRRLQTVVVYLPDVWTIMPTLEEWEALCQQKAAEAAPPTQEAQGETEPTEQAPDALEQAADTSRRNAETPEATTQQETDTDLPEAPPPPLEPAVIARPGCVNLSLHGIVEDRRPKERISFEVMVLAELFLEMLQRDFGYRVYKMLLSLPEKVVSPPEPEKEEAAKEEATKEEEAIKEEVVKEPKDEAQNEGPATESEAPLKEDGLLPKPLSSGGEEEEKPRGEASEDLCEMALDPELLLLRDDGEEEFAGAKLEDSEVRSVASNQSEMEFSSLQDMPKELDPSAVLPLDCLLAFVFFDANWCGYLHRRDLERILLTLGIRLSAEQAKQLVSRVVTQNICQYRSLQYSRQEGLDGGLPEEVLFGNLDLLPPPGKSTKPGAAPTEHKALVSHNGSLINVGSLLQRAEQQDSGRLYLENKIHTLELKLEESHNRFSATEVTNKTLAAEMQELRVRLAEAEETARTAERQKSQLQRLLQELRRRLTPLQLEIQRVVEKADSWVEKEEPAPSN
- experiment-notes: competitive isoTOP-ABPP
- Type: binding
- measurement-parameters: 50 uM, 231 sol, in vitro
Would you mind telling me the reported isoTOP-ABPP reactivity ratio at lysine Q8N163_K112 of each entry?
One number for each entry.

Reference set (2 entries):
>  <molecule>
O=C(Oc1c(F)c(F)c(F)c(F)c1F)c1ccc2ccccc2n1

>  <readout-value>
1.1

$$$$
>  <molecule>
CCn1cc(C(=O)Oc2c(F)c(F)c(F)c(F)c2F)c(=O)c2ccc(C)nc21

>  <readout-value>
1.1

$$$$

For every item below, please supply its isoTOP-ABPP reactivity ratio at lysine Q8N163_K112.
1. O=C(Oc1c(F)c(F)c(F)c(F)c1F)C1CCN(C(=O)OCc2ccccc2)CC1
2. O=C(Oc1ccc([N+](=O)[O-])cc1[N+](=O)[O-])C(c1ccccc1)c1ccccc1 [fragment 30, 2,4-Dinitrophenyl 2,2-diphenylacetate]
3. O=C(CCc1cn(-c2ccccc2)nc1-c1ccccc1)Oc1ccc([N+](=O)[O-])cc1[N+](=O)[O-]
4. O=C(CN1C(=O)c2ccccc2C1=O)Oc1c(F)c(F)c(F)c(F)c1F

## Result
1.0
1.4
1.2
1.2

* * *

- target-desc: ERAP1 Endoplasmic reticulum aminopeptidase 1 (Homo sapiens, UniProt Q9NZ08)
- Construct: endogenous in cells; host or cells: MDA-MB-231 lysate
- Sequence (Q9NZ08 whole entry): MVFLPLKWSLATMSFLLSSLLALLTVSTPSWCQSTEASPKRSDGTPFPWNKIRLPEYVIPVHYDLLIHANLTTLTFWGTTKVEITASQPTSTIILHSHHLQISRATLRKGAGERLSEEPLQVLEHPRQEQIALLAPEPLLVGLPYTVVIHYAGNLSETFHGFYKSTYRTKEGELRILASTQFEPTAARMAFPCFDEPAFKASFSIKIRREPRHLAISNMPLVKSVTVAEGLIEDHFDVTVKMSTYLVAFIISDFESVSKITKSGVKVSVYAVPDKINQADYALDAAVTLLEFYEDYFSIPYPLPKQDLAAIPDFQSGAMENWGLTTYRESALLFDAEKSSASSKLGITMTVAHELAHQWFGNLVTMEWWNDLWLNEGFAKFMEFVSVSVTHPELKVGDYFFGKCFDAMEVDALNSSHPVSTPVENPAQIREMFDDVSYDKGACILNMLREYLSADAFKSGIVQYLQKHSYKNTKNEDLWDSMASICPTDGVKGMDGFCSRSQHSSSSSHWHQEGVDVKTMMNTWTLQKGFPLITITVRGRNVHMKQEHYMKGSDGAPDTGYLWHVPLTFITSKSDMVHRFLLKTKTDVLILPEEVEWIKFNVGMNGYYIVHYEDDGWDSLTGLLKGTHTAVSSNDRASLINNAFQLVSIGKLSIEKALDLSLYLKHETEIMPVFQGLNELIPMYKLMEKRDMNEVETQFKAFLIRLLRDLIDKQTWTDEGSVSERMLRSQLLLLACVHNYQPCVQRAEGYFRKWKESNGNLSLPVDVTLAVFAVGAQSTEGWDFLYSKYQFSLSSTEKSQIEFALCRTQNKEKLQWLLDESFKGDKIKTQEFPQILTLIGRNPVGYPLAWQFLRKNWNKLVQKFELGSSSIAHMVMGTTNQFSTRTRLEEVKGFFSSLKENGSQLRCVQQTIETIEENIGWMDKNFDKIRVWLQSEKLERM
- experiment-notes: competitive isoTOP-ABPP
- Type: binding
- measurement-parameters: 50 uM, in vitro, sol, 231
reported-endpoint: isoTOP-ABPP ratio (R) at liganded lysine Q9NZ08_K685
Give bare numbers.

Reference set (8 entries):
>  <molecule>
CC(=O)Oc1ccc([N+](=O)[O-])cc1[N+](=O)[O-] [fragment 43, 2,4-Dinitrophenyl acetate]

>  <target-desc>
ERAP1 Endoplasmic reticulum aminopeptidase 1 (Homo sapiens, UniProt Q9NZ08)

>  <readout-value>
1.1

$$$$
>  <molecule>
O=C(Oc1ccc([N+](=O)[O-])cc1[N+](=O)[O-])c1ccc(Oc2ccccc2)cc1 [fragment 39, 2,4-Dinitrophenyl 4-phenoxybenzoate]

>  <target-desc>
ERAP1 Endoplasmic reticulum aminopeptidase 1 (Homo sapiens, UniProt Q9NZ08)

>  <readout-value>
1.0

$$$$
>  <molecule>
O=C(Oc1ccc([N+](=O)[O-])cc1[N+](=O)[O-])C(c1ccccc1)(c1ccccc1)c1ccccc1 [fragment 42, 2,4-Dinitrophenyl 2,2,2-triphenylacetate]

>  <target-desc>
ERAP1 Endoplasmic reticulum aminopeptidase 1 (Homo sapiens, UniProt Q9NZ08)

>  <readout-value>
1.0

$$$$
>  <molecule>
O=C(Oc1ccc([N+](=O)[O-])cc1[N+](=O)[O-])c1ccc(-c2ccccc2)cc1

>  <target-desc>
ERAP1 Endoplasmic reticulum aminopeptidase 1 (Homo sapiens, UniProt Q9NZ08)

>  <readout-value>
1.0

$$$$
>  <molecule>
O=C(Oc1ccc([N+](=O)[O-])cc1[N+](=O)[O-])C1CCN(C(=O)OCc2ccccc2)CC1

>  <target-desc>
ERAP1 Endoplasmic reticulum aminopeptidase 1 (Homo sapiens, UniProt Q9NZ08)

>  <readout-value>
1.7

$$$$
>  <molecule>
CC(C)(C)OC(=O)NCCCC(=O)Oc1ccc([N+](=O)[O-])cc1[N+](=O)[O-]

>  <target-desc>
ERAP1 Endoplasmic reticulum aminopeptidase 1 (Homo sapiens, UniProt Q9NZ08)

>  <readout-value>
1.3

$$$$
>  <molecule>
O=C(CC12CC3CC(CC(C3)C1)C2)Oc1ccc([N+](=O)[O-])cc1[N+](=O)[O-]

>  <target-desc>
ERAP1 Endoplasmic reticulum aminopeptidase 1 (Homo sapiens, UniProt Q9NZ08)

>  <readout-value>
1.0

$$$$
>  <molecule>
O=C(Oc1ccc([N+](=O)[O-])cc1[N+](=O)[O-])c1ccccc1Nc1cccc(C(F)(F)F)c1

>  <target-desc>
ERAP1 Endoplasmic reticulum aminopeptidase 1 (Homo sapiens, UniProt Q9NZ08)

>  <readout-value>
1.1

$$$$

## Task Record O=C(CCc1coc2cc(F)ccc2c1=O)Oc1ccc([N+](=O)[O-])cc1[N+](=O)[O-] : what is its isoTOP-ABPP ratio (R) at liganded lysine Q9NZ08_K685 with ERAP1 Endoplasmic reticulum aminopeptidase 1 (Homo sapiens, UniProt Q9NZ08)?
## Result 1.1
